assay: logP (HPLC; acetonitrile); type: physicochemical; conditions: acidic; HPLC; acetonitrile
Measured Attribute: chromatographic logP
Please state the value as a number alone, without comment.

Exam item: Please give the documented chromatographic logP of CCOC(=O)C1(OC(=O)Cc2nc(-c3ccc(Cl)cc3)sc2C)CCC(OC)CC1 (stereo not shown) [III-A-1]
Marked response: 4.54

All figures here come from patent US7141533B2.
